Molecular target: Palmitoleoyl-protein carboxylesterase NOTUM (Homo sapiens, UniProt Q6P988)
Sequence (Q6P988 whole entry): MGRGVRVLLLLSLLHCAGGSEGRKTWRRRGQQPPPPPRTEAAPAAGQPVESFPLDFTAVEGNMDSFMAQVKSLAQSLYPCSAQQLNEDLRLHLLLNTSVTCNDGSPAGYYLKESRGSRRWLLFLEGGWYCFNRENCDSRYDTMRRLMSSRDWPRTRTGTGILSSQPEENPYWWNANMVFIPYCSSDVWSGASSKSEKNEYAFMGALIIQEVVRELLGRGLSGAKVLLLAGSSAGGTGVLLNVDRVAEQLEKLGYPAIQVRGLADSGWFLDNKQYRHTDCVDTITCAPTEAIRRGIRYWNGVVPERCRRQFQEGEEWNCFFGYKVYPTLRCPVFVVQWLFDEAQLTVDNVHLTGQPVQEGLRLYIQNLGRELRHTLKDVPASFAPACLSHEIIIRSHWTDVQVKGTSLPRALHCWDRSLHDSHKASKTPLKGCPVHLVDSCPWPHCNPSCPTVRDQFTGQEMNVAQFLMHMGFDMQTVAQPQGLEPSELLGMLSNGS
measurement_type: pIC50
Please report pIC50 as the negative decimal logarithm of the molar concentration, giving only the number.

Request: Kindly state the measured pIC50 obtained for Cc1ccccc1OCC(=O)Nc1cccnc1 with Palmitoleoyl-protein carboxylesterase NOTUM (Homo sapiens, UniProt Q6P988).
Response: 4.48

----------
Target: UniProt Q6P988
Listing of recorded pIC50 by entry.
When answering, recall that pIC50 equals minus log10 of the concentration in mol/L, and write that number alone.

molecule	measured_result
CC(=O)NCCc1c[nH]c2ccc(O)cc12	4.03

Now for a further molecule.
Request: Name the reported pIC50 value associated with the molecule Cc1sc2ncnc(SCC(=O)O)c2c1Cl
Response: 8.70

Reference for the values: ChEMBL document CHEMBL5149981
